Recorded values, source patent US20120231006A1.

target: T1, hOrai1-mOrai1 ECL2 (VST) protein (human/mouse chimera, UniProt Q96D31 1-301); test: FACS, 293EBNA; parameters: concentration or dose not given beside the values
T1 construct: also called Ch
T1 sequence (Q96D31 other isoform, or with tags, fused parts or gaps): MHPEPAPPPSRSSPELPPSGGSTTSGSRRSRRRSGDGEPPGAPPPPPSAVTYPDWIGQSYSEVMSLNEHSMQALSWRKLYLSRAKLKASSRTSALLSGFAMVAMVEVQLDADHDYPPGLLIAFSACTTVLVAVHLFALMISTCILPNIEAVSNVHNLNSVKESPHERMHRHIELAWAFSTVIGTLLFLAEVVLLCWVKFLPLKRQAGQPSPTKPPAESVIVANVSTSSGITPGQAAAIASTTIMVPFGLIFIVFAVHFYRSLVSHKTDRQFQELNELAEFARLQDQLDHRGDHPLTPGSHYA
Measured percent of control (POC) of FACS Geo Mean values are reported for all entries that follow.

- binder: "mAb 5C1.1 (antibody, human IgG2, lambda, V domains shown, fully human IgG2 lambda, Campaign 2) VH: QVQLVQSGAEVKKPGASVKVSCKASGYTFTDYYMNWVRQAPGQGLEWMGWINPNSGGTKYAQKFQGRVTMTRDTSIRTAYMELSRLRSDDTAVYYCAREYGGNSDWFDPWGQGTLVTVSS VL: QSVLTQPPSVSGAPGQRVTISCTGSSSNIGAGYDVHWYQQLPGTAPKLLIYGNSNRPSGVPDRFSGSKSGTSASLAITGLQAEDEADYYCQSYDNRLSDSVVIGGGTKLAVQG"
  measurement: "< 1%"
- binder: "mAb 5B5.2 (antibody, human IgG2, lambda, V domains shown, fully human IgG2 lambda, Campaign 2; same chains as 5B5.1) VH: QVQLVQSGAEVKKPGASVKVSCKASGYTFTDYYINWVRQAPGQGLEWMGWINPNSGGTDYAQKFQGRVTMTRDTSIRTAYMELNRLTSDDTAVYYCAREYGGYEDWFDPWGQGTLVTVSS VL: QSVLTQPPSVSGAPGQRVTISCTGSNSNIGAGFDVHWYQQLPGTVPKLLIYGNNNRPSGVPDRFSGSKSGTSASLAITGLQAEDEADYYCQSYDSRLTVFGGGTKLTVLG"
  measurement: "< 1%"

Inquiry: Query (binder): mAb 5A4.2 (antibody, human IgG2, lambda, V domains shown, fully human IgG2 lambda, Campaign 2) VH: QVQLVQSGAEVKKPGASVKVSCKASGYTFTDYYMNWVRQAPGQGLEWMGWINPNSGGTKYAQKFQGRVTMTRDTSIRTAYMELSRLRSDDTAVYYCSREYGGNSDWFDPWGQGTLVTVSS VL: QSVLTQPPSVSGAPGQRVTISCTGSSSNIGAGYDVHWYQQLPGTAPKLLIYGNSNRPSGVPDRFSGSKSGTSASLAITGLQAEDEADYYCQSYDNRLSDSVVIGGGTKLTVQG ; field requested: percent of control (POC) of FACS Geo Mean
Reply text: < 1%
